measurement-target: human IgE pre-bound on human basophils (human) (UniProt P01854)
Sequence (P01854 whole entry, chain 1 of 2): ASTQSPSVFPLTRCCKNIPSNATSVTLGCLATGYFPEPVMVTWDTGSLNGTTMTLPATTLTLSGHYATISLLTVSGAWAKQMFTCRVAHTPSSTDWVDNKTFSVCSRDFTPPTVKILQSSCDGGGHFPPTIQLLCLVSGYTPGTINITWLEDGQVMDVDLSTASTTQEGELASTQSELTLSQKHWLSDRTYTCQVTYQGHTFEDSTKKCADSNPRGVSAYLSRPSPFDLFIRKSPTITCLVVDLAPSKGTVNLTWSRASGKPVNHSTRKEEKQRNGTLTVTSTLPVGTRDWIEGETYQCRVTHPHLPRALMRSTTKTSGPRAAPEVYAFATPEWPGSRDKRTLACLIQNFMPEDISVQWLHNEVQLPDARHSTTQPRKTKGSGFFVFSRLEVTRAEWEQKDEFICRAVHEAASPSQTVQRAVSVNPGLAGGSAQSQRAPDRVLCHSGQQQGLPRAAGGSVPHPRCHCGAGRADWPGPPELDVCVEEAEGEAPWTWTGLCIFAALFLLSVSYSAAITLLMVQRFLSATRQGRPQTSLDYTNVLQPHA
Sequence (P12319 26-257, chain 2 of 2, further chain): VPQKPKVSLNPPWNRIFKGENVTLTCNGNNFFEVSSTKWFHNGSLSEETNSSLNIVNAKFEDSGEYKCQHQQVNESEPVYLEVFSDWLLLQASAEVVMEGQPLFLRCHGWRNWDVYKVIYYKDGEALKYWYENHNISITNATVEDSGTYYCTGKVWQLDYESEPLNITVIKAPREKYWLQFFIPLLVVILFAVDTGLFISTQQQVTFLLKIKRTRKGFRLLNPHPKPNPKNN
measurement-description: cell-based or functional assay
API: label(entry) gives 1 if the entry's % of activated basophils (CCR3+CD63+) is strictly smaller than 20%; on equality or larger values it gives 0.

Example entries begin here.
{"columns": ["binder", "assigned-class"],
 "data": [
  ["18E2His2-hIgG1-ABDEG (antibody, V domains shown) VH: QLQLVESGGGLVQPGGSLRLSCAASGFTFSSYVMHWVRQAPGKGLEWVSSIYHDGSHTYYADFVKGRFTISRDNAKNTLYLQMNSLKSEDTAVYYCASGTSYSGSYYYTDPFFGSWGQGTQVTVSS VL: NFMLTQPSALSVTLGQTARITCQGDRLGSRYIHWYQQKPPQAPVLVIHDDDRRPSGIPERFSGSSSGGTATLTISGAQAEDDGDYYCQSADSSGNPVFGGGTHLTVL", 1],
  ["18B9His-hIgG1-ABDEG (antibody, V domains shown) VH: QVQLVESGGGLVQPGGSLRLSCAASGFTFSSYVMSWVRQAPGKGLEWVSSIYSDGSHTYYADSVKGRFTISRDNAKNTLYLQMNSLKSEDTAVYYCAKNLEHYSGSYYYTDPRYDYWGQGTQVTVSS VL: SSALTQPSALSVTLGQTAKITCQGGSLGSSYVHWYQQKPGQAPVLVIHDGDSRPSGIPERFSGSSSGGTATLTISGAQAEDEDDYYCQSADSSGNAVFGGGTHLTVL", 0],
  ["13E4-hIgG1-ABDEG (antibody, V domains shown) VH: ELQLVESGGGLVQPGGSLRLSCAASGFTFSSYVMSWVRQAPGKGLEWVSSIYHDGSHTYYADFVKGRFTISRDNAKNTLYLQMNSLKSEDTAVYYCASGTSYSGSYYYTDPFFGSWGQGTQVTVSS VL: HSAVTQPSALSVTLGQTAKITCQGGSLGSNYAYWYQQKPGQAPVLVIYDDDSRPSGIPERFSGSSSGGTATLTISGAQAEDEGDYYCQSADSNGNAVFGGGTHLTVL", 1],
  ["18B9His-hIgG1-WT (antibody, V domains shown) VH: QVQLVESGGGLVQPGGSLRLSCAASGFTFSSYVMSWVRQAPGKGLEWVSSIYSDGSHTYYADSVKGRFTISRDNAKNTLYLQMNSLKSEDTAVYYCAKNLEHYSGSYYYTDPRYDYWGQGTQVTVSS VL: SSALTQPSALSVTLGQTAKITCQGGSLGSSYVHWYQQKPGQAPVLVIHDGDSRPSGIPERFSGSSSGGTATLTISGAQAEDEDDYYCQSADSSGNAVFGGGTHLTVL", 0],
  ["13E4-hIgG1-WT (antibody, V domains shown) VH: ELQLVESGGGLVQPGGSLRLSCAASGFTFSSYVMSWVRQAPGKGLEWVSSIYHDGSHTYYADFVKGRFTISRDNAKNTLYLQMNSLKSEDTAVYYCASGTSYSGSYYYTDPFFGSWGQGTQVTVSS VL: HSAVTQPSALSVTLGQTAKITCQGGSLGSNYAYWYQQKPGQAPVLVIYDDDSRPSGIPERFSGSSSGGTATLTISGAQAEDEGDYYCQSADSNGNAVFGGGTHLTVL", 1]
]}

Threshold test, % of activated basophils (CCR3+CD63+) < 20%: 18E2His2-hIgG1-WT (antibody, V domains shown) VH: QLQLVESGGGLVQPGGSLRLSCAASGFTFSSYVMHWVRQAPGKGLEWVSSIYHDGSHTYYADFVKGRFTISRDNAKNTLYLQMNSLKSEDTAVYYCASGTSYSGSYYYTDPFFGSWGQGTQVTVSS VL: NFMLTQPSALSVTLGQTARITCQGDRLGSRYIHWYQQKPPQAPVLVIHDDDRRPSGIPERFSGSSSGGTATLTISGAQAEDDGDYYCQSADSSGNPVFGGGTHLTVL 1
